The measured values listed here are drawn from patent US10738041B2.

Overview of recorded IC50 for various compounds
target: human Fpn (Homo sapiens, UniProt Q9NP59); construct: FLAG (C); made in house; host or cells: Pichia pastoris; assay: Biophysical Ferroportin-Hepcidin Binding Assay (fluorescence polarization); conditions: average of multiple measurements; 1 μM human Fpn, 20 nM TMR-hepcidin; read-out: FP IC50
Sequence (Q9NP59 whole entry): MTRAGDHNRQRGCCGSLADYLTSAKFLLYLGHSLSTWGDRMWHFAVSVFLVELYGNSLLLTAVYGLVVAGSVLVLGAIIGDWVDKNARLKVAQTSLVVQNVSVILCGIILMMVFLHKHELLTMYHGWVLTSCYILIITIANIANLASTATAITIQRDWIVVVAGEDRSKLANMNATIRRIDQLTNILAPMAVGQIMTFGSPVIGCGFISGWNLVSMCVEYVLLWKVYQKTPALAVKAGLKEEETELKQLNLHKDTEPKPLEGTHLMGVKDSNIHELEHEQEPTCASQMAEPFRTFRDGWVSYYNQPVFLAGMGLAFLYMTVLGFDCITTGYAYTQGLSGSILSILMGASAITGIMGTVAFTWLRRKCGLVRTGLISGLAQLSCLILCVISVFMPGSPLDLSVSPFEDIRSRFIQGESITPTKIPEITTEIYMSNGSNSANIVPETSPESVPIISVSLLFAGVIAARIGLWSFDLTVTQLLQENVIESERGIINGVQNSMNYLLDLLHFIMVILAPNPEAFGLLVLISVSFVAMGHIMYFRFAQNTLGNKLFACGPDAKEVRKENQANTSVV

{"Compound": "O=C(NCc1ncccc1CO)c1csc(CCNCc2nc3ccccc3[nH]2)n1", "Unit of measurement": "nM", "IC50": 3420}
{"Compound": "O=C(CCNCCc1nc2ccccc2[nH]1)NCC(=O)NCc1ncccc1F", "Unit of measurement": "nM", "IC50": 660}
{"Compound": "Cc1oc(CCNCCc2nc3ccccc3[nH]2)nc1C(=O)NCc1ncccc1F", "Unit of measurement": "nM", "IC50": 58}
{"Compound": "O=C(NCc1ncccc1F)c1cc(CCNCc2nc3ccccc3[nH]2)ccn1", "Unit of measurement": "nM", "IC50": 267}
{"Compound": "O=C(NCc1ccccc1)c1csc(CCNCc2nc3cc(C(F)(F)F)ccc3[nH]2)n1", "Unit of measurement": "nM", "IC50": 530}
{"Compound": "O=C(NCc1ccccc1)c1ccc(CCNCc2nc3ccccc3[nH]2)cc1", "Unit of measurement": "nM", "IC50": 53800}
{"Compound": "O=C(CC(=O)NCc1ncccc1F)NCCNCc1nc2ccccc2[nH]1", "Unit of measurement": "nM", "IC50": 17000}
{"Compound": "O=C(NCc1ccccn1)c1coc(CCNCc2nc3ccccc3[nH]2)n1", "Unit of measurement": "nM", "IC50": 1040}
{"Compound": "CC(NC(=O)c1csc(CCNCc2nc3ccccc3[nH]2)n1)c1ccccc1 (stereo not shown)", "Unit of measurement": "nM", "IC50": 1000}
{"Compound": "O=C(NCc1cnccn1)c1csc(CCNCc2nc3ccccc3[nH]2)n1", "Unit of measurement": "nM", "IC50": 4340}

====

biological target: ferroportin (Fpn) (Mus musculus, UniProt Q9JHI9); construct: host or cells: J774 mouse macrophage cell line, Fe(III)-NTA induced; assay: Hepcidin Internalization Assay (J774); type: cell-based; details: average of multiple measurements; inhibition of TMR-hepcidin (25 nM) internalization into J774 cells; read-out: J774 IC50
Sequence (Q9JHI9 whole entry): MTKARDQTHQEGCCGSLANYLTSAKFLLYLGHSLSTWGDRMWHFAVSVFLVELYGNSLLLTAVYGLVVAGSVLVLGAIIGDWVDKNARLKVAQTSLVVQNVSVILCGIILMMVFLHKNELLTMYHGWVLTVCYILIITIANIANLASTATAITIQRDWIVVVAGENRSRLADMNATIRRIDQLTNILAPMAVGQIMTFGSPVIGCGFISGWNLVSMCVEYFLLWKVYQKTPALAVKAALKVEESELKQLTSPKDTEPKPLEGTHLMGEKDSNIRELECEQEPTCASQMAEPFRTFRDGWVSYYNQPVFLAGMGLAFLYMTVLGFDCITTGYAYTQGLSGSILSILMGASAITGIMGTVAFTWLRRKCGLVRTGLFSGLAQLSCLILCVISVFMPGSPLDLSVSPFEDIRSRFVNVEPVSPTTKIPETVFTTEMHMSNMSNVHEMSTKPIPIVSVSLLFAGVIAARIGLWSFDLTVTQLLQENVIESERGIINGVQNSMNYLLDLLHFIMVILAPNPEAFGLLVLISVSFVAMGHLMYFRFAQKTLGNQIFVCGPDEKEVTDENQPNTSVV
pIC50: −log10 of the molar value.

{"Compound": "O=C(NCc1ncccc1F)c1cnn(C2CN(Cc3nc4ccccc4[nH]3)C2)c1 [Example 136]", "Assay system": "ferroportin (Fpn) (Mus musculus, UniProt Q9JHI9)", "Value modifier": "<", "pIC50": 4.98}
{"Compound": "O=C(NCc1ccccc1)c1csc(CCNCc2nc3cc(Cl)ccc3[nH]2)n1 [Example 52]", "Assay system": "ferroportin (Fpn) (Mus musculus, UniProt Q9JHI9)", "Value modifier": "=", "pIC50": 6.47}
{"Compound": "CN(C)c1ccccc1CNC(=O)c1csc(CCNCc2nc3ccccc3[nH]2)n1 [Example 70]", "Assay system": "ferroportin (Fpn) (Mus musculus, UniProt Q9JHI9)", "Value modifier": "=", "pIC50": 6.28}
{"Compound": "CC(NC(=O)c1csc(CCNCc2nc3ccccc3[nH]2)n1)c1ccccc1 (stereo not drawn) [Example 73]", "Assay system": "ferroportin (Fpn) (Mus musculus, UniProt Q9JHI9)", "Value modifier": "=", "pIC50": 6.43}
{"Compound": "O=C(NCc1ccccn1)c1nc(CCNCCc2nc3ccccc3[nH]2)sc1Cl [Example 184]", "Assay system": "ferroportin (Fpn) (Mus musculus, UniProt Q9JHI9)", "Value modifier": "=", "pIC50": 7.20}
{"Compound": "O=C(NC1CCc2cccnc21)c1cnn(CCNCCc2nc3ccccc3[nH]2)c1 (stereo not drawn) [Example 131]", "Assay system": "ferroportin (Fpn) (Mus musculus, UniProt Q9JHI9)", "Value modifier": "=", "pIC50": 7.05}
{"Compound": "Cc1c(C(=O)NCc2ncccc2F)ncn1CCNCCc1nc2ccccc2[nH]1 [Example 219]", "Assay system": "ferroportin (Fpn) (Mus musculus, UniProt Q9JHI9)", "Value modifier": "=", "pIC50": 5.61}
{"Compound": "O=C(NCc1ncccc1F)c1coc(CCNCCc2nc3c(F)ccc(F)c3[nH]2)n1 [Example 251]", "Assay system": "ferroportin (Fpn) (Mus musculus, UniProt Q9JHI9)", "Value modifier": "=", "pIC50": 7.21}
{"Compound": "O=C(NCc1ccc[nH]c1=O)c1csc(CCNCc2nc3ccccc3[nH]2)n1 [Example 83]", "Assay system": "ferroportin (Fpn) (Mus musculus, UniProt Q9JHI9)", "Value modifier": "=", "pIC50": 7.02}
{"Compound": "O=C(NCc1ccccc1)c1csc(CCNCc2nc3cc(C(F)(F)F)ccc3[nH]2)n1 [Example 51]", "Assay system": "ferroportin (Fpn) (Mus musculus, UniProt Q9JHI9)", "Value modifier": "=", "pIC50": 6.44}
{"Compound": "O=C(NCc1cccc(=O)[nH]1)c1csc(CCNCc2nc3ccccc3[nH]2)n1 [Example 47]", "Assay system": "ferroportin (Fpn) (Mus musculus, UniProt Q9JHI9)", "Value modifier": "=", "pIC50": 6.14}
{"Compound": "O=C(NCc1ncccc1F)c1ncn(CCNCc2nc3ccccc3[nH]2)n1 [Example 169]", "Assay system": "ferroportin (Fpn) (Mus musculus, UniProt Q9JHI9)", "Value modifier": "=", "pIC50": 6.12}
{"Compound": "O=C(NCc1c(F)cccc1F)c1csc(CCNCc2nc3ccccc3[nH]2)n1 [Example 69]", "Assay system": "ferroportin (Fpn) (Mus musculus, UniProt Q9JHI9)", "Value modifier": "=", "pIC50": 6.59}
{"Compound": "O=C(NCc1ncccn1)c1csc(CCNCCc2nc3ccccc3[nH]2)n1 [Example 129]", "Assay system": "ferroportin (Fpn) (Mus musculus, UniProt Q9JHI9)", "Value modifier": "=", "pIC50": 6.45}
{"Compound": "O=C(NCCCCNCc1nc2ccccc2[nH]1)NCc1ncccc1F [compound 197]", "Assay system": "ferroportin (Fpn) (Mus musculus, UniProt Q9JHI9)", "Value modifier": "=", "pIC50": 6.21}
{"Compound": "O=C(NCc1cccc(N2CCCC2)c1)c1csc(CCNCc2nc3ccccc3[nH]2)n1 [Example 21]", "Assay system": "ferroportin (Fpn) (Mus musculus, UniProt Q9JHI9)", "Value modifier": "=", "pIC50": 5.17}
{"Compound": "Cc1nn(CCNCc2nc3ccccc3[nH]2)c(C)c1C(=O)NCc1ncccc1F [Example 142]", "Assay system": "ferroportin (Fpn) (Mus musculus, UniProt Q9JHI9)", "Value modifier": "=", "pIC50": 4.67}
{"Compound": "Cc1oc(CCNCCc2nc3ccccc3[nH]2)nc1C(=O)NCc1ncccc1F [Example 230]", "Assay system": "ferroportin (Fpn) (Mus musculus, UniProt Q9JHI9)", "Value modifier": "=", "pIC50": 6.85}
{"Compound": "COc1cccc2[nH]c(CCNCCc3nc(C(=O)NCc4ncccc4F)co3)nc12 [Example 227]", "Assay system": "ferroportin (Fpn) (Mus musculus, UniProt Q9JHI9)", "Value modifier": "=", "pIC50": 6.89}
{"Compound": "O=C(NCc1ncccc1F)c1cnn(CC2CN(CCc3nc4ccccc4[nH]3)C2)c1 [Example 192]", "Assay system": "ferroportin (Fpn) (Mus musculus, UniProt Q9JHI9)", "Value modifier": "=", "pIC50": 4.87}
{"Compound": "O=C(NCc1ccnc(N2CCOCC2)c1)c1csc(CCNCc2nc3ccccc3[nH]2)n1 [Example 96]", "Assay system": "ferroportin (Fpn) (Mus musculus, UniProt Q9JHI9)", "Value modifier": "=", "pIC50": 5.53}
{"Compound": "O=C(NCc1ncccc1F)c1cnn(C2CCN(CCc3nc4ccccc4[nH]3)CC2)c1 [Example 198]", "Assay system": "ferroportin (Fpn) (Mus musculus, UniProt Q9JHI9)", "Value modifier": "=", "pIC50": 4.57}
{"Compound": "Cn1nc(CNCCc2nc3ccccc3[nH]2)cc1C(=O)NCc1ncccc1F [Example 220]", "Assay system": "ferroportin (Fpn) (Mus musculus, UniProt Q9JHI9)", "Value modifier": "=", "pIC50": 6.54}
{"Compound": "O=C(NCc1ncccc1F)c1csc([C@H]2[C@@H]3CN(CCc4nc5ccccc5[nH]4)C[C@@H]32)n1 [Example 218]", "Assay system": "ferroportin (Fpn) (Mus musculus, UniProt Q9JHI9)", "Value modifier": "=", "pIC50": 5.35}

====

target: human Fpn (Homo sapiens, UniProt Q9NP59); construct: FLAG (C); made in house; host or cells: Pichia pastoris; test: Biophysical Ferroportin-Hepcidin Binding Assay (fluorescence polarization); conditions: average of multiple measurements; 1 μM human Fpn, 20 nM TMR-hepcidin; read-out: FP IC50
pIC50: −log10 of the molar value.
I'd appreciate it if you could label each record using pIC50 and these ranges: low-valued (below 5), mid-valued (5 to below 6), high-valued (6 or more)

{"Mol": "O=C(c1csc(CCNCc2nc3ccccc3[nH]2)n1)N1CCCCC1", "Classification": "low-valued"}
{"Mol": "O=C(NCc1cccs1)c1csc(CCNCc2nc3ccccc3[nH]2)n1", "Classification": "mid-valued"}
{"Mol": "O=C(NCc1cccnn1)c1csc(CCNCc2nc3ccccc3[nH]2)n1", "Classification": "mid-valued"}
{"Mol": "Cc1cc(C)c(CNC(=O)c2csc(CCNCc3nc4ccccc4[nH]3)n2)cn1", "Classification": "high-valued"}
{"Mol": "O=C(NCc1ncccc1F)c1csc(CCN(Cc2nc3ccccc3[nH]2)Cc2nc3ccccc3[nH]2)n1", "Classification": "high-valued"}
{"Mol": "O=C(NCc1ncccc1F)c1csc(CCNCCc2nc3ccccc3[nH]2)n1", "Classification": "high-valued"}
{"Mol": "CN1CCN(c2ccccc2CNC(=O)c2csc(CCNCc3nc4ccccc4[nH]3)n2)CC1", "Classification": "mid-valued"}
{"Mol": "O=C(NCc1ncccc1F)c1cnn(CC2CN(CCc3nc4ccccc4[nH]3)C2)c1", "Classification": "low-valued"}
{"Mol": "O=C(NCc1ccncc1)c1csc(CCNCc2nc3ccccc3[nH]2)n1", "Classification": "mid-valued"}
{"Mol": "O=C(NCc1ncc(F)cc1Cl)c1csc(CCNCc2nc3ccccc3[nH]2)n1", "Classification": "high-valued"}
{"Mol": "O=C(NCc1ncccc1F)c1cnn(CC2CN(Cc3nc4ccccc4[nH]3)C2)c1", "Classification": "low-valued"}
{"Mol": "O=C(NCc1ncco1)c1csc(CCNCc2nc3ccccc3[nH]2)n1", "Classification": "mid-valued"}
